Every entry's value here was drawn from ChEMBL document CHEMBL1141572.

System: Escherichia coli
PROTOCOL_SUMMARY: Antibacterial activity against Escherichia coli by micro-broth dilution method
Format: functional
VALUE_TYPE: MIC

Reported MIC for CC(C)=CCCC(C)CCN1C(=O)/C(=C(/C)O)C(=O)[C@@H]1CC(C)C (some centres not stated) : what is it?
> 200 µg/mL

// returns reported MIC for input C/C(O)=C1\C(=O)[C@H](Cc2ccccc2)N(Cc2ccccc2)C1=O
> 200 µg/mL

Data request, read-out MIC, for CCC(C)[C@H]1C(=O)/C(=C(\C)O)C(=O)N1Cc1ccccc1 (some centres not stated)
> 200 µg/mL

# input molecule: CCCCCCCCCCN1C(=O)/C(=C(/C)O)C(=O)[C@@H]1C(C)C ; wanted: its MIC
> 200 µg/mL

// returns reported MIC for input CCN1C(=O)/C(=C(/C)O)C(=O)[C@@H]1Cc1ccccc1
> 200 µg/mL

Entry under review: CCCCCCCCCCN1C(=O)/C(=C(/C)O)C(=O)[C@H]1CC(C)C . Reported MIC?
> 200 µg/mL

What value of measured MIC is listed for CCCCN1C(=O)/C(=C(/C)O)C(=O)[C@@H]1CC(C)C ?
> 200 µg/mL
